The values you see were collected from patent US11963939B2.

Measured pEC50 by item
Tested on: primary cortical neurons
Procedure Summary: cells
Type: cell-based, mouse
Measurement Parameters: Mus musculus, Primary cortical neuron; 100 μM hemin, primary cortical neurons; read-out: EC50 for reduction of hemin-induced toxicity/ferroptosis
Quick note: pEC50 values are minus log10 of concentrations in mol/L.

CC(=O)N[C@@H](CS)C(=O)O
3.30

Shift focus to the following entry.
INPUT: # pEC50 lookup, item CC(c1cc2ccccc2s1)N(O)C(N)=O (centres unmarked)
OUTPUT: 5.15
